- Target or system: human TLR7 (Homo sapiens)
- Construct: HA; host or cells: 293XL-hTLR7-HA (HEK293)
- Sequence (Q9NYK1 27-1049): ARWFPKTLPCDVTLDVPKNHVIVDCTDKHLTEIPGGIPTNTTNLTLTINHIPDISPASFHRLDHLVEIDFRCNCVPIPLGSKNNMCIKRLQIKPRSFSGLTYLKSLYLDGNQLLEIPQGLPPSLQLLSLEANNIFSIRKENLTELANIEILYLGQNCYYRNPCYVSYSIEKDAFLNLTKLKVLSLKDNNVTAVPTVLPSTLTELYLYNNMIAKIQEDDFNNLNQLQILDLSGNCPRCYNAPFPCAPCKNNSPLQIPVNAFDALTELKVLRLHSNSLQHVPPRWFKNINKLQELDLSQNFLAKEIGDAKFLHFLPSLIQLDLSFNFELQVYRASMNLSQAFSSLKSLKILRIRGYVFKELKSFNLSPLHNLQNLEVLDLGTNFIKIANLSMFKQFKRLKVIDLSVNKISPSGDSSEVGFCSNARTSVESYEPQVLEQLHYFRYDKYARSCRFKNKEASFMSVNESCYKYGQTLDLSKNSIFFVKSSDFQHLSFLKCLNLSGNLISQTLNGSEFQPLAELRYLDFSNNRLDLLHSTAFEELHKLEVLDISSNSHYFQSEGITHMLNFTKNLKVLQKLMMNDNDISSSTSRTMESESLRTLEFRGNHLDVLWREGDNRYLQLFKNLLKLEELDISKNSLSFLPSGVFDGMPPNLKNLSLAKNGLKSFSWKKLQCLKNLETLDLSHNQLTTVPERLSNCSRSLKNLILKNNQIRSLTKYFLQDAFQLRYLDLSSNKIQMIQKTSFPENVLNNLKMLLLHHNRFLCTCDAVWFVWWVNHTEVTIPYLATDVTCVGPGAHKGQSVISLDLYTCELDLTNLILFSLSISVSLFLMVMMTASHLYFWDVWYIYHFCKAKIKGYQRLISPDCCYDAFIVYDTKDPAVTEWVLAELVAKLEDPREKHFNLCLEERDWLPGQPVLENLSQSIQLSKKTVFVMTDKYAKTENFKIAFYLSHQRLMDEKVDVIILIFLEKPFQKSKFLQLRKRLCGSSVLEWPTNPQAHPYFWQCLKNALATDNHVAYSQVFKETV
- Procedure details: HEK-TLR7 NF-κB-luciferase reporter, R848 stimulation
- Type: cell-based
- Conditions: MOE-modified ASO at 100 nM; averaged NF-κB-Luciferase relative to R848 condition
Form field: TLR7 100 nM (one value per entry).
Endpoint: TLR7 100 nM

1) AGGTCTTGGCTTCGTGGAGC (antisense; 2'-MOE modified, pattern not given here) [MB21D1-522 MOE]    0.547
2) AATCCGCCCAAAGGGAACTG (antisense; 2'-MOE modified, pattern not given here) [HPRT-1027 MOE]    0.691
3) TCCAACACTTCGTGGGGTCC (antisense; 2'-MOE modified, pattern not given here) [HPRT-667 MOE]    0.929
4) GTCCAAGATCAGCAGTCTCA (antisense; 2'-MOE modified, pattern not given here) [CTNN2B-2341 MOE]    0.298

* * *

- Target or system: human TLR9 (Homo sapiens)
- Construct: HA; host or cells: 293XL-hTLR9-HA (HEK293)
- Procedure details: HEK-TLR9 NF-κB-luciferase reporter, ODN2006 stimulation
- Assay type: cell-based
- Conditions: ASO 500 nM; relative to ODN2006 only, given as fraction
- Procedure: In such examples, inhibition of TLR9 activity can be identified by observation of an overall decreased TLR9 response of the cell population, or a lower proportion of cells having TLR9-positive activity as compared to positive control condition in which cells are treated with TLR9 agonist in the absence of the oligonucleotide (or in the presence of an appropriate control inhibitory agent). […] TLR9 activity can then be determined by a luciferase assay. […]
Note to self: TLR9 500 nM (averaged NF-κB-Luciferase level relative to ODN2006 condition) under 0.4 means yes (1), ties and anything higher get no (0).

1) TACTTTCCGAGGTGTC (antisense; LNA-modified, pattern not given here) [CAMSAP1-1739 LNA KL]    yes (1)
2) GTATCGAAAGAGTCTG (antisense; LNA-modified, pattern not given here) [EGFR-3908 LNA KL]    no (0)
3) CGTATTATAGCCGATT (antisense; LNA-modified, pattern not given here) [NC1 LNA PS 3-10-3]    no (0)
4) TCGTAGTTGCTTCCTA (antisense; LNA-modified, pattern not given here) [MB21D1-1181 LNA KL]    yes (1)
5) GTTCAGTCCTGTCCAT (antisense; LNA-modified, pattern not given here) [HPRT LNA-292 V1]    yes (1)
6) GTCAAGGGCATATCCT (antisense; LNA-modified, pattern not given here) [HPRT LNA-732 KL]    yes (1)
7) TTTTGGCTGGGATCAA (antisense; LNA-modified, pattern not given here) [CAMSAP1-4697 LNA KL]    yes (1)

* * *

- Target or system: human TLR9 (Homo sapiens, UniProt Q9NR96)
- Construct: HA; host or cells: 293XL-hTLR9-HA (HEK293)
- Sequence (Q9NR96 26-1032): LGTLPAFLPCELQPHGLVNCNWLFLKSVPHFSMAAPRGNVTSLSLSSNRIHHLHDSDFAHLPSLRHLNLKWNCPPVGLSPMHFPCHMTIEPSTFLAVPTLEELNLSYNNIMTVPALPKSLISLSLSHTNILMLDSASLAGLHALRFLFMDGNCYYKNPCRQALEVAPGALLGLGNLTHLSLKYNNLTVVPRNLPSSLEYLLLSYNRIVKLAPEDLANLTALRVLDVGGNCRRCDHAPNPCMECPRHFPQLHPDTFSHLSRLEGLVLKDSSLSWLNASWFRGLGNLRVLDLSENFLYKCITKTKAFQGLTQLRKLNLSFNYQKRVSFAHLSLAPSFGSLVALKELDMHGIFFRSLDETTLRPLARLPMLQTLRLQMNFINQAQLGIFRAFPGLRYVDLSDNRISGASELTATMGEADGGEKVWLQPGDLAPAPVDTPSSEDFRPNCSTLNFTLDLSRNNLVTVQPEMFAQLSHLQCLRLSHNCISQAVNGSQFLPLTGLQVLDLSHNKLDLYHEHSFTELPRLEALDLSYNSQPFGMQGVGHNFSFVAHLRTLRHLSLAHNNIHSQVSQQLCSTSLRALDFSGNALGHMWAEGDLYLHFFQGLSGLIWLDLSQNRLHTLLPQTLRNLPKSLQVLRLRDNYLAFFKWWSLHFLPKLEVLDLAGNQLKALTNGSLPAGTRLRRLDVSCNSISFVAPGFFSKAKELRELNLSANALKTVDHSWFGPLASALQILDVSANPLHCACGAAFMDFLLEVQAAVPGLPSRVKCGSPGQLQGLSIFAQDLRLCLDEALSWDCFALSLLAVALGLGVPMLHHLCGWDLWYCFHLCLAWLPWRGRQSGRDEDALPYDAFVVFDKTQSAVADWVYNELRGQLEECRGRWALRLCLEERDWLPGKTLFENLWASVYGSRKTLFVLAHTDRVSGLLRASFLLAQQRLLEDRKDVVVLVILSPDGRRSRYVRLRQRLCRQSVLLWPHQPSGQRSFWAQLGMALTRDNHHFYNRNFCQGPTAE
- Procedure details: HEK-TLR9 NF-κB-luciferase reporter, ODN2006 stimulation
- Type: cell-based
- Conditions: ASO 500 nM; relative to ODN2006 only, given as fraction
// boundary case: TLR9 500 nM (averaged NF-κB-Luciferase level relative to ODN2006 condition) equal to 0.4 maps to no (0); strictly smaller maps to yes (1)

1. GCACTTCAGTCTGAGC (antisense; LNA-modified, pattern not given here) [MB21D1-719 LNA KL]    yes (1)
2. TGTCTGGAAGCTTCCT (antisense; LNA-modified, pattern not given here) [CTNN2B-808 LNA V1]    no (0)
3. GGCACTTTGCCTCCTT (antisense; LNA-modified, pattern not given here) [EGFR-2859 LNA V1]    no (0)
4. GGCTCGGCTTGCCTAC (antisense; LNA-modified, pattern not given here) [CAMSAP1-5594 LNA V1]    yes (1)
5. GATAGCACCTTCAGCA (antisense; LNA-modified, pattern not given here) [CTNN2B-1294 LNA KL]    no (0)
6. GCCATCCACTTGATAG (antisense; LNA-modified, pattern not given here) [EGFR-2874 LNA V1]    no (0)
7. TGACTGTCTTGAGGGT (antisense; LNA-modified, pattern not given here) [MB21D1-1483 LNA KL]    yes (1)
8. GATGGCCTCCCATCTC (antisense; LNA-modified, pattern not given here) [HPRT LNA-331 V1]    no (0)
9. GGAGGTCTTGGCTTCG (antisense; LNA-modified, pattern not given here) [MB21D1-526 LNA V1]    no (0)
10. GTCTCTGGAGCTTCCT (antisense; LNA-modified, pattern not given here) [CAMSAP1-2456 LNA V1]    yes (1)
11. CCCACTTGGCAGACCA (antisense; LNA-modified, pattern not given here) [CTNN2B-1576 LNA V1]    no (0)
12. CCAACACTTCGTGGGG (antisense; LNA-modified, pattern not given here) [HPRT LNA-668 V1]    no (0)
13. CATCCACCACGTCGTC (antisense; LNA-modified, pattern not given here) [EGFR-3266 LNA V1]    no (0)
14. ACCACGTCTGCTCTAA (antisense; LNA-modified, pattern not given here) [CAMSAP1-1635 LNA KL]    yes (1)
15. AGGTCTTGGCTTCGTG (antisense; LNA-modified, pattern not given here) [MB21D1-524 LNA V1]    yes (1)
16. TGTGATGGCCTCCCAT (antisense; LNA-modified, pattern not given here) [HPRT LNA-334 V1]    no (0)
17. ACTTCGTGGGGTCCTT (antisense; LNA-modified, pattern not given here) [HPRT LNA-663 V1]    yes (1)
18. AGGACTCCAGATGTTT (antisense; LNA-modified, pattern not given here) [HPRT LNA pos cont]    no (0)
19. GAAAGGTTATGCAAGG (antisense; LNA-modified, pattern not given here) [CTNN2B-916 LNA KL]    no (0)
20. CCAAGATCAGCAGTCT (antisense; LNA-modified, pattern not given here) [CTNN2B-2341 LNA KL]    no (0)
21. TGTCCTTGCACGTGGC (antisense; LNA-modified, pattern not given here) [EGFR-1016 LNA V1]    no (0)
22. GGTCATTACAATAGCT (antisense; LNA-modified, pattern not given here) [HPRT LNA-475 KL]    no (0)
23. GGCTGGAATCCGAGTT (antisense; LNA-modified, pattern not given here) [EGFR-4705 LNA KL]    no (0)
24. AATCCAACAAAGTCTG (antisense; LNA-modified, pattern not given here) [HPRT LNA-692 KL]    no (0)
25. CGGCCTCGGAAGCTCT (antisense; LNA-modified, pattern not given here) [MB21D1-168 LNA V1]    yes (1)
26. TCCACAATCAAGACAT (antisense; LNA-modified, pattern not given here) [HPRT LNA-551 KL]    yes (1)

Origin of the recorded values: patent US20240384268A1
